- experimental target: hASIC1b (Homo sapiens, UniProt P78348)
- Construct: expressed in transfected cells; host or cells: Xenopus laevis oocytes (cRNA injection)
- Sequence (P78348 1-562 isoform P78348-3): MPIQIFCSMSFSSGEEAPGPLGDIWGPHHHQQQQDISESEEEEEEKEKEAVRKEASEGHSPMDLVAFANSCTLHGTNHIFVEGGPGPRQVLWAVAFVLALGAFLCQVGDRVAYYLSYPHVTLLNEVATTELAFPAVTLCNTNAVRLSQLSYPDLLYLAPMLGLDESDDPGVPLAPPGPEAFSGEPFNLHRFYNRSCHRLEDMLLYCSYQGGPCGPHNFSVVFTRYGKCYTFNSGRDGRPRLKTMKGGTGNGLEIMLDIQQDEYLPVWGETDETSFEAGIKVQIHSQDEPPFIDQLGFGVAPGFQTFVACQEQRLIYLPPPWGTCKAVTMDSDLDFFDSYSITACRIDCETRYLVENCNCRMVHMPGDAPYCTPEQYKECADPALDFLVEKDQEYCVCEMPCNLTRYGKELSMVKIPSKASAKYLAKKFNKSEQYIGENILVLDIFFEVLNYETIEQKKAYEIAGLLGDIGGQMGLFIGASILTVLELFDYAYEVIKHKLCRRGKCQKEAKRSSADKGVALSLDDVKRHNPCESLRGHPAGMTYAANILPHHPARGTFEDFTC
- test method notes: TEVC in Xenopus laevis oocytes expressing hASIC1b
- Format: cell-based
- conditions: 1 µM peptide, pH 5 evoked currents, conditioning pH 7.45; mean, n ≥ 5; read-out: I/Icontrol
Positions of bridges follow the written chain, without caps; N, C: chain ends. No end group written: not given here.
observable: remaining activity at 1 µM (%)
Only the number, expressed in %, is required.

H-SLKCYQHGKVVTCHRDMKFCYHNIGMPFRNLKLILQGCSAACSETENNKCCSTDRCNK (disulfide 4-20, 13-38, 42-50, 51-56 (inferred)) [S39A/S40A] :: 71

input: Query (substance): H-SLKCYQHGKVVTCHRDMKFCYHNIGMPFRNLKLILQGCSSSCSETENNKCCSTDACNK (disulfide 4-20, 13-38, 42-50, 51-56 (inferred)) [R54A] ; field requested: remaining activity at 1 µM
output: 79

input: // remaining activity at 1 µM lookup, key: H-SLKCYQHGKVVTCHRDMKFCYHNIGMPFRNLKAILQGCSSSCSETENNKCCSTDRCNK (disulfide 4-20, 13-38, 42-50, 51-56 (inferred)) [L32A]
output: 96

====

- experimental target: hASIC1b (Homo sapiens)
- Construct: expressed in transfected cells; host or cells: Xenopus laevis oocytes (cRNA injection)
- test method notes: TEVC in Xenopus laevis oocytes expressing hASIC1b
- Type: cell-based
- conditions: 1 µM peptide, pH 5 evoked currents, conditioning pH 7.45; mean, n ≥ 5; read-out: I/Icontrol
Positions of bridges follow the written chain, without caps; N, C: chain ends. No end group written: not given here.
observable: remaining activity at 1 µM (%)
Only the number, expressed in %, is required.

For orientation, consider the following solved cases.
H-SLKCYQHGKVVTCHRDMKFCYHNIGMPFRALKLILQGCSSSCSETENNKCCSTDRCNK (disulfide 4-20, 13-38, 42-50, 51-56 (inferred)) [N29A] :: 76
H-SLKCYQHGKVVTCHRDMKFCYHNIGMPFRNLKLIAQGCSSSCSETENNKCCSTDRCNK (disulfide 4-20, 13-38, 42-50, 51-56 (inferred)) [L34A] :: 98
H-SLKCYQHGKVVTCHADMKFCYHNIGMPFRNLKLILQGCSSSCSETENNKCCSTDRCNK (disulfide 4-20, 13-38, 42-50, 51-56 (inferred)) [R14A] :: 77
H-SLKCYQHGKVVTCHRDMKFCYHNIGMPFRNLKLILQGCSSSCSETENNKCCSTDRCNA (disulfide 4-20, 13-38, 42-50, 51-56 (inferred)) [K57A] :: 73

Now look at this entry.
input: Which value of remaining activity at 1 µM has been reported for H-SLKCYQHGKVVTCHRDMKFCYHNAGMPFRNLKLILQGCSSSCSETENNKCCSTDRCNK (disulfide 4-20, 13-38, 42-50, 51-56 (inferred)) [I23A] in the records?
output: 67

====

- experimental target: hASIC1b (Homo sapiens)
- Construct: expressed in transfected cells; host or cells: Xenopus laevis oocytes (cRNA injection)
- test method notes: TEVC in Xenopus laevis oocytes expressing hASIC1b
- Assay type: cell-based
- conditions: 1 µM peptide, pH 5 evoked currents, conditioning pH 7.45; mean, n ≥ 5; read-out: I/Icontrol
- Protocol: Two-electrode voltage-clamp (TEVC) experiments using Xenopus laevis oocytes were conducted as previously described. […] Membrane currents were recorded 2–7 days after cRNA-injection under voltage-clamp at -60 mV (Axon Axoclamp 900 A, Molecular Devices, CA, USA) using two standard glass microelectrodes of 0.5–1 MΩ resistance when filled with 3 M KCl solution. […]
Positions of bridges follow the written chain, without caps; N, C: chain ends. No end group written: not given here.
remaining activity at 1 µM listing for selected substances.
Kindly answer with a numeric value in %, unit omitted.

H-SLKCYQHGKVVTCHRDMKFCYHNIGMPFRNLALILQGCSSSCSETENNKCCSTDRCNK (disulfide 4-20, 13-38, 42-50, 51-56 (inferred)) [K31A] :: 94
H-SLKCYQHGKVVTCHRDAKFCYHNIGMPFRNLKLILQGCSSSCSETENNKCCSTDRCNK (disulfide 4-20, 13-38, 42-50, 51-56 (inferred)) [M16A] :: 80
H-SLKCYQHGKVVTCHRDMKFCYHNIGMPFRNLKLILQGCSSSCSETENNACCSTDRCNK (disulfide 4-20, 13-38, 42-50, 51-56 (inferred)) [K48A] :: 70
H-SLKCYQAGKVVTCHRDMKFCYHNIGMPFRNLKLILQGCSSSCSETENNKCCSTDRCNK (disulfide 4-20, 13-38, 42-50, 51-56 (inferred)) [H6A] :: 98

Now for a further substance.
input: Entry under review: H-SLKCYQHGKVVTCHRDMKFCYHNIGMPFRNLKLALQGCSSSCSETENNKCCSTDRCNK (disulfide 4-20, 13-38, 42-50, 51-56 (inferred)) [I33A] . Reported remaining activity at 1 µM?
output: 100
